# credit: a melting point compilation (Tetko et al.)

Each record here notes measured melting point.

Could you tell me which melting point is on file for COc1ccc(-c2ccc(S(=O)(=O)Cl)cc2)cc1 ?
103 to 106 °C

###

Catalogue of compounds with associated melting point
Your answer should be a plain number; it is taken to be in °C.

Examples with answers:
Field request: melting point | item: Fc1nccc(Br)c1Br
76

Need melting point, item CC(C)=NN(c1ccccc1)P(=O)(N1CC1)N1CC1
120

Would you kindly share the measured melting point for CCCC1Nn2c(nnc2-c2ccc(OCC)cc2)S1 (stereo not drawn) ?
90

Next:
Suppose we examine the compound CCCBr ; what melting point value has been reported?
-110

###

Recorded melting point for the following molecules

Endpoint output: melting point of O=c1[nH]c2scc(-c3ccccc3)c2c(=O)n1-c1ccc(Cl)c(Cl)c1 . Value?
274 to 276 °C

Record request: melting point value, item O=C(O)c1cccc(Oc2ccccn2)c1
108 to 112 °C

Field: next molecule
// lookup melting point for CC(=O)c1ccc(CCc2ccccc2)cc1
68 to 70 °C
